Cited source for all entries: paper PMC12299470

Target: human serum albumin (Homo sapiens)
Assay: Rapid equilibrium dialysis (RED), fraction unbound at various HSA concentrations
Type: in vitro ADME
Conditions: Krebs buffer with 2% HSA, 2% HSA, drug 1 μg/mL in Krebs buffer, 37 °C, read-out: fraction unbound (fu)
Procedure: The rapid equilibrium dialysis (RED) apparatus and test inserts were purchased from Thermo Fisher Scientific (Rockford, IL, USA). The unbound fraction of each assessed drug was determined using RED. Briefly, a drug was diluted to 1 μg/mL in Krebs buffer containing different concentrations of HSA. Five hundred microliters of the assessed drug and each of the different HSA concentrations were added to the sample chamber of an insert and 750 μL of blank buffer was added to the adjacent chamber. […]
Result Type: fraction unbound at 8 h, 1 μg/mL

> print(dat)
                                   molecule   val
1  CC(C)c1nc(N(C)S(C)(=O)=O)nc(-c2ccc(F)cc2)c1/C=C/[C@@H](O)C[C@@H](O)CC(=O)O  0.29
2  CNCCC(Oc1ccc(C(F)(F)F)cc1)c1ccccc1 (centres unmarked)  0.05

* * *

biological target: human serum albumin (Homo sapiens, UniProt P02768); assay: Rapid equilibrium dialysis (RED), fraction unbound at various HSA concentrations; assay type: in vitro ADME; details: Krebs buffer with 0.5% HSA, 0.5% HSA, drug 1 μg/mL in Krebs buffer, 37 °C, read-out: fraction unbound (fu)
Sequence (P02768 25-609): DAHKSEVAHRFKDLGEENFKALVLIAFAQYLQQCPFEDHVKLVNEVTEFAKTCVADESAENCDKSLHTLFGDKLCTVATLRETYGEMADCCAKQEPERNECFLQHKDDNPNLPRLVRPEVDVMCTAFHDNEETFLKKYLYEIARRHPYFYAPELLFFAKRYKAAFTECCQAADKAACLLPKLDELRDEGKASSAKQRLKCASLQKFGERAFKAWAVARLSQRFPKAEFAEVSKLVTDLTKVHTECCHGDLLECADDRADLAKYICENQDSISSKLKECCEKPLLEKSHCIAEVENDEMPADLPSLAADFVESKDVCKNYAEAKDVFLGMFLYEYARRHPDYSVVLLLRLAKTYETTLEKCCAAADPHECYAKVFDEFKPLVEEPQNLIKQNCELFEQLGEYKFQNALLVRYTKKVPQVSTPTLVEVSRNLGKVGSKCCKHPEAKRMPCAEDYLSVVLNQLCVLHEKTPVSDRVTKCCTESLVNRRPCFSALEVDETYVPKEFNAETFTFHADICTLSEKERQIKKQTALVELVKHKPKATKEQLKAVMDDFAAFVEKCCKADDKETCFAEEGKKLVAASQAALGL
Result Type: fraction unbound at 8 h, 1 μg/mL

> print(dat)
                                   compound                             system.tested   val
1  CC(C)c1nc(N(C)S(C)(=O)=O)nc(-c2ccc(F)cc2)c1/C=C/[C@@H](O)C[C@@H](O)CC(=O)O [Rosuvastatin]  human serum albumin (Homo sapiens, UniProt P02768)  0.51

* * *

biological target: human serum albumin (Homo sapiens); assay: Rapid equilibrium dialysis (RED), fraction unbound at various HSA concentrations; assay type: in vitro ADME; settings: Krebs buffer with 0.1% HSA, 0.1% HSA, drug 1 μg/mL in Krebs buffer, 37 °C, read-out: fraction unbound (fu)
# reported fraction unbound at 8 h, 1 μg/mL; entries follow
Result Type: fraction unbound at 8 h, 1 μg/mL

> print(dat)
                                   compound   val
1  CC(C)c1nc(N(C)S(C)(=O)=O)nc(-c2ccc(F)cc2)c1/C=C/[C@@H](O)C[C@@H](O)CC(=O)O [Rosuvastatin]   0.9
2  CNCCC(Oc1ccc(C(F)(F)F)cc1)c1ccccc1 (centres unmarked) [Fluoxetine]  0.45

* * *

Biological target: human serum albumin (Homo sapiens, UniProt P02768)
Assay: Rapid equilibrium dialysis (RED), fraction unbound at various HSA concentrations
Format: in vitro ADME
Details: Krebs buffer with […] HSA, 0.25% HSA, drug 1 μg/mL in Krebs buffer, 37 °C, read-out: fraction unbound (fu)
Description: The rapid equilibrium dialysis (RED) apparatus and test inserts were purchased from Thermo Fisher Scientific (Rockford, IL, USA). The unbound fraction of each assessed drug was determined using RED. Briefly, a drug was diluted to 1 μg/mL in Krebs buffer containing different concentrations of HSA. Five hundred microliters of the assessed drug and each of the different HSA concentrations were added to the sample chamber of an insert and 750 μL of blank buffer was added to the adjacent chamber. […]
Result Type: fraction unbound at 8 h, 1 μg/mL

> print(dat)
                                   compound   val
1  CNCCC(Oc1ccc(C(F)(F)F)cc1)c1ccccc1 (centres unmarked)   0.4
2  CC(C)c1nc(N(C)S(C)(=O)=O)nc(-c2ccc(F)cc2)c1/C=C/[C@@H](O)C[C@@H](O)CC(=O)O  0.77

* * *

molecular target: human serum albumin (Homo sapiens); assay: Rapid equilibrium dialysis (RED), fraction unbound at various HSA concentrations; type: in vitro ADME; details: Krebs buffer with […] HSA, 0.025% HSA, drug 1 μg/mL in Krebs buffer, 37 °C, read-out: fraction unbound (fu)
Result Type: fraction unbound at 8 h, 1 μg/mL

> print(dat)
                                   compound                       result.type   val
1  CNCCC(Oc1ccc(C(F)(F)F)cc1)c1ccccc1 (stereo not shown)  fraction unbound at 8 h, 1 μg/mL  0.87
